// data source = patent US20230374132A1

# TARGET: T1, human CD3E&G complex (Sino Biological Inc., CT041-H0305H) (human, UniProt P07766 23-126; P09693 23-116)
# T1 construct: bought heterodimer; also called human CD3E&G antigen
# T1 sequence (P07766 23-126, chain 1 of 2): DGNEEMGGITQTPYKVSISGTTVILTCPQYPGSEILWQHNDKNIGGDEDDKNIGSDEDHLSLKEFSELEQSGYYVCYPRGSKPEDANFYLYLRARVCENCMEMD
# T1 sequence (P09693 23-116, chain 2 of 2): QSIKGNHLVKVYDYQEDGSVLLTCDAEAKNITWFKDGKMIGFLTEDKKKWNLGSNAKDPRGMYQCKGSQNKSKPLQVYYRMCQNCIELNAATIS
# ASSAY EXPLANATION: BLI, antibody on sensor
# reported Kd; entries follow
Quick note: give the figure in nM, leave out the unit.

Recorded results for 8 binders are shown here.
sp34 (antibody, human IgG1, lambda, L234A L235A, V domains shown, mouse variable regions on human IgG1 L234A L235A and lambda constant regions; also called chimeric antibody sp34; mouse sp34) VH: EVQLVESGGGLVQPKGSLKLSCAASGFTFNTYAMNWVRQAPGKGLEWVARIRSKYNNYATYYADSVKDRFTISRDDSQSILYLQMNNLKTEDTAMYYCVRHGNFGNSYVSWFAYWGQGTLVTVSS VL: QAVVTQESALTTSPGETVTLTCRSSTGAVTTSNYANWVQEKPDHLFTGLIGGTNKRAPGVPARFSGSLIGDKAALTITGAQTEDEAIYFCALWYSNLWVFGGGTKLTVLG	6.22
hzsp34.92 (antibody, human IgG1, lambda, L234A L235A, V domains shown, CDR mutant of hzsp34.24; IgG1 L234A L235A, lambda) VH: EVQLVESGGGLVQPGGSLKLSCAASGFTFNTYAMNWVRQASGKGLEWVGRIRSKYNNYATYYADSVKDRFTISRDDSKSTLYLQMNSLKTEDTAVYYCARHGNFGQRYVSWFAYWGQGTTVTVSS VL: QAVVTQEPSLTVSPGGTVTLTCRSSTGAVTTSNYANWVQQKPGQAPRGLIGGTNKRAPGVPARFSGSLLGDKAALTLLGAQPEDEAEYYCALWYSNLWVFGQGTKLTVLG	4.82
hzsp34.113 (antibody, human IgG1, lambda, L234A L235A, V domains shown, CDR mutant of hzsp34.24; IgG1 L234A L235A, lambda) VH: EVQLVESGGGLVQPGGSLKLSCAASGFTFNTYAMNWVRQASGKGLEWVGRIRSKYNNYATYYADSVKDRFTISRDDSKSTLYLQMNSLKTEDTAVYYCARHGNFGQSYVSWFAYWGQGTTVTVSS VL: QAVVTQEPSLTVSPGGTVTLTCRSSTGAVTTSNYANWVQQKPGQAPRGLIGGTNKRAPGVPARFSGSLLGDKAALTLLGAQPEDEAEYYCALAASNLWVFGQGTKLTVLG	3.71
hzsp34.82 (antibody, human IgG1, lambda, L234A L235A, V domains shown, CDR mutant of hzsp34.24; IgG1 L234A L235A, lambda) VH: EVQLVESGGGLVQPGGSLKLSCAASGFTFNTYAMNWVRQASGKGLEWVGRIRLKYNNYATYYADSVKDRFTISRDDSKSTLYLQMNSLKTEDTAVYYCARHGNFGQSYVSWFAYWGQGTTVTVSS VL: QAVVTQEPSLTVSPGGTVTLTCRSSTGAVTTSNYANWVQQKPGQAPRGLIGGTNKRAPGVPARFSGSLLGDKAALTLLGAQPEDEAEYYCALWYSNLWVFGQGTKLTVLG	12
hzsp34.93 (antibody, human IgG1, lambda, L234A L235A, V domains shown, CDR mutant of hzsp34.24; IgG1 L234A L235A, lambda) VH: EVQLVESGGGLVQPGGSLKLSCAASGFTFNTYAMNWVRQASGKGLEWVGRIRSKYNNYATYYADSVKDRFTISRDDSKSTLYLQMNSLKTEDTAVYYCARHGNFGQSAVSWFAYWGQGTTVTVSS VL: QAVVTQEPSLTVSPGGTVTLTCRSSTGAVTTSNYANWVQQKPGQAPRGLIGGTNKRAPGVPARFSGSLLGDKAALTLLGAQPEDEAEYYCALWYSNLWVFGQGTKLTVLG	3.42
hzsp34.24 (antibody, human IgG1, lambda, L234A L235A, V domains shown, IgG1 L234A L235A, lambda; parent of the CDR mutants) VH: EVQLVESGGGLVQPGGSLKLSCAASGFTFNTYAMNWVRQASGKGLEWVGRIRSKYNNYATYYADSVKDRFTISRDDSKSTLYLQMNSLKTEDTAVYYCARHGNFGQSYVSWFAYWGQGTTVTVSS VL: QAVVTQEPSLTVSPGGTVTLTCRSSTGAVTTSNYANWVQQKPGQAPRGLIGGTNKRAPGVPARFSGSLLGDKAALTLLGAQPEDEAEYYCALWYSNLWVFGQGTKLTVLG	8
hzsp34.104 (antibody, human IgG1, lambda, L234A L235A, V domains shown, CDR mutant of hzsp34.24; IgG1 L234A L235A, lambda) VH: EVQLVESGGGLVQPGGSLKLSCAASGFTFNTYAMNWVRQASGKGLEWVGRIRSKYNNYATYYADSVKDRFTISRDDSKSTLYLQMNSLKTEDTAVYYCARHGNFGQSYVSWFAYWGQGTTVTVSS VL: QAVVTQEPSLTVSPGGTVTLTCRSSTGAVTGSNYANWVQQKPGQAPRGLIGGTNKRAPGVPARFSGSLLGDKAALTLLGAQPEDEAEYYCALWYSNLWVFGQGTKLTVLG	8.54
hzsp34.106 (antibody, human IgG1, lambda, L234A L235A, V domains shown, CDR mutant of hzsp34.24; IgG1 L234A L235A, lambda) VH: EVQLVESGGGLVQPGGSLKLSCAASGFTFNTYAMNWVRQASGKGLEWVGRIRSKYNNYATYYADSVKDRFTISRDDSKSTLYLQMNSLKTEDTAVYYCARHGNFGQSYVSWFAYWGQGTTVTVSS VL: QAVVTQEPSLTVSPGGTVTLTCRSSTGAVTTSGYANWVQQKPGQAPRGLIGGTNKRAPGVPARFSGSLLGDKAALTLLGAQPEDEAEYYCALWYSNLWVFGQGTKLTVLG	10.3

**Query** Requested field: Kd. Item: hzsp34.110 (antibody, human IgG1, lambda, L234A L235A, V domains shown, CDR mutant of hzsp34.24; IgG1 L234A L235A, lambda) VH: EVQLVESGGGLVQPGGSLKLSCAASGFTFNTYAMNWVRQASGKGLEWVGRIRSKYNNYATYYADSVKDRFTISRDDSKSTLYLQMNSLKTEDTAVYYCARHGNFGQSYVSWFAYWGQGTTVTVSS VL: QAVVTQEPSLTVSPGGTVTLTCRSSTGAVTTSNYANWVQQKPGQAPRGLIGGTNKRAPGVPARFSGSLLGDKAALTLLGAQPEDEAEYYCALWYSGLWVFGQGTKLTVLG
**Result** 8.49

**Query** GET /values?readout=Kd&item= hzsp34.87 (antibody, human IgG1, lambda, L234A L235A, V domains shown, CDR mutant of hzsp34.24; IgG1 L234A L235A, lambda) VH: EVQLVESGGGLVQPGGSLKLSCAASGFTFNTYAMNWVRQASGKGLEWVGRIRSKYNNYATYYADSVKDRFTISRDDSKSTLYLQMNSLKTEDTAVYYCARHYNFGQSYVSWFAYWGQGTTVTVSS VL: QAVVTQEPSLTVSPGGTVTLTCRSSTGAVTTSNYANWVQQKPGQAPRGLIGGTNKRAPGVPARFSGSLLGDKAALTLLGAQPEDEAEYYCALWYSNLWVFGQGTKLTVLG
**Result** 6.06
